- Tested on: SK-MEL-28
- assayRemarks: NCI tumour cell line growth inhibition, 48 h
The source made the active and inactive calls. Cut-off read from the data, not from the text of the source: active = GI50 up to about 1.1 µM and inactive = higher.
Would you mind answering with one of these outcomes? 1 = active, -1 = inactive

Exam item: Tell me the assay call for Oc1nc(-c2ccccc2)cc(-c2ccccc2O)n1 please.
Marked response: -1

Exam item: Tell me the assay call for CC(C)(C)OC(=O)CN1CCNCCNCC1 please.
Marked response: -1

Exam item: Tell me the assay call for S=c1sc2cscc2s1 please.
Marked response: -1

Exam item: Tell me the assay call for COC(=O)C(Cc1c[nH]c2ccccc12)NC(=O)c1ccc(-c2ccc(Cl)cc2Cl)o1 (configuration not stated) please.
Marked response: -1

Exam item: Tell me the assay call for C/C=C1\NC(=O)[C@H]2CSSCCC=C[C@H](CC(=O)N[C@H](C(C)C)C(=O)N2)OC(=O)[C@H](C(C)C)NC1=O please.
Marked response: 1

Exam item: Tell me the assay call for COc1ccc(/C=N/n2c(Cc3ccccc3)n[nH]c2=O)cc1 please.
Marked response: -1

Exam item: Tell me the assay call for C/C(=N\O)c1ccc2ccc3ccccc3c2c1 please.
Marked response: -1

Exam item: Tell me the assay call for O=C(Nc1nc2ncn(CCI)c2c(=O)[nH]1)c1ccccc1 please.
Marked response: -1

Exam item: Tell me the assay call for CN(CCC(=O)O)C1=Nc2ccc(Cl)cc2C(c2ccccc2)=[N+]([O-])C1 please.
Marked response: -1

Exam item: Tell me the assay call for CO/N=C1/c2sccc2[C@H](NC(=O)CNC(=O)OC(C)(C)C)[C@@H]1O please.
Marked response: -1

Exam item: Tell me the assay call for FC(F)(F)c1cc(Cl)cnc1N/N=C(/c1ccccc1)c1ccccn1 please.
Marked response: -1

Exam item: Tell me the assay call for CCN(CC)N1C(=O)[N-][N+](CC)(CC)C1=O please.
Marked response: -1

====

Quick reference for GI50 among some compounds
- Tested on: SR
- assayRemarks: NCI tumour cell line growth inhibition, 48 h
Calls of active or inactive are those of the source. Cut-off read from the data, not from the text of the source: active = GI50 up to about 1.1 µM and inactive = higher.

Reported GI50 for Cc1ccc(-n2cc(-c3ccc(Cl)cc3)c3c(NN)ncnc32)cc1 was 3.41 µM (inactive)

Reported GI50 for Cc1ccc(C(=O)N(Cc2ccccc2)Cc2ccccc2)cc1/N=N/N(C)C was 27.7 µM (inactive)

Reported GI50 for CC(=O)OCC1=C(COC(C)=O)C(=O)c2c(O)ccc(O)c2C1=O was 5.47 µM (inactive)

Reported GI50 for O=C1c2cc3ncsc3cc2C(=O)c2c(O)ccc(O)c21 was > 100 µM (inactive)

Reported GI50 for O=C(Nc1ccn(C2CCC(CO)O2)c(=O)n1)c1ccccc1 (stereo unspecified) was > 100 µM (inactive)

Reported GI50 for C/C(CN1C(=O)c2ccccc2C1=O)=N\NS(=O)(=O)c1ccc(C)cc1 was > 100 µM (inactive)

====

Quick reference for GI50 among some compounds
- System: KM12
- assayRemarks: NCI tumour cell line growth inhibition, 48 h
Activity calls are given as the source filed them. Cut-off read from the data, not from the text of the source: active = GI50 up to about 1.1 µM and inactive = higher.

Example cases with answers are listed next.
COc1c2c(cc3occ(-c4ccc(CC=C(C)C)cc4)c(=O)c13)OC(C)(C)C=C2
41.4 µM (inactive)
C1#Cc2ccccc2OCCOc2ccccc2C#Cc2ccccc2OCCOc2ccccc21
68.2 µM (inactive)

Reported GI50 for Cc1ccc(S(=O)(=O)Oc2nc3ccccc3nc2N(S(=O)(=O)c2ccc(C)cc2)S(=O)(=O)c2ccc(C)cc2)cc1 was 33.7 µM (inactive)

Reported GI50 for C[S+]([O-])c1cc(=O)c2ccccc2s1 (stereo unspecified) was 12.6 µM (inactive)

Reported GI50 for C/C(CN1C(=O)c2ccccc2C1=O)=N\NS(=O)(=O)c1ccc(C)cc1 was > 100 µM (inactive)

Reported GI50 for O=C(O)C1(Nc2ccc(Cl)cc2)CCCC1 was > 100 µM (inactive)

Reported GI50 for COC(=O)c1cc(C)ccc1CC(Cc1cccc(C)c1)C(=O)OC (stereo unspecified) was > 100 µM (inactive)

Reported GI50 for CCCCc1c2c(nc3c1CCc1cc(C=O)c(N)nc1-3)/C(=C/c1ccccc1)CCC2 was > 100 µM (inactive)

Reported GI50 for COc1cc2c3cc1Oc1c(OC)c(OC)cc4c1C(=NCC4)Cc1ccc(cc1)Oc1cc(ccc1O)C[C@H]3N(C)CC2 was 15 µM (inactive)

Reported GI50 for COc1cc(/C=C/c2ccncc2)cc(OC)c1OC was > 100 µM (inactive)

Reported GI50 for O=C1C2Cc3c(n(C(=O)c4ccccc4)c4ccccc34)CC2C(=O)N1c1ccc(Nc2ccc(N3C(=O)C4Cc5c(n(C(=O)c6ccccc6)c6ccccc56)CC4C3=O)cc2)cc1 (stereo unspecified) was > 100 µM (inactive)
